- Tested on: Fibroblast
- protocol notes: Incucyte cell viability with human fibroblast; note: filed as whole numbers so only -1 and 0 and 1 occur
- Type: toxicity, cell-based
- test context: 24 h, 10 µM, compound concentration 10 uM, replicate number 1, timepoint 24 hours
The entries below are paired with their reported Growth Rate.
metric name: Growth Rate

>  <compound>
NC(CCP(=O)(O)O)C(=O)O (racemic)

>  <value reported>
1

$$$$
>  <compound>
CC(C)(C)OC(=O)N1CCCC1CNC1CCC(c2cc(F)ccc2F)(S(=O)(=O)c2ccc(Cl)cc2)CC1 (stereo not given)

>  <value reported>
0

$$$$
>  <compound>
C=CC(=O)Nc1ccc2[nH]c(=O)n(C3CCN(C(=O)c4ccc(-c5nc6cc[nH]c(=O)c6cc5-c5ccccc5)cc4)CC3)c2c1

>  <value reported>
1

$$$$
>  <compound>
Cl.O=C(c1ccc(Nc2nccc(-c3cc4ccccc4s3)n2)cc1)N1CCC(N2CCCC2)CC1

>  <value reported>
0

$$$$
>  <compound>
O=S(=O)(NC1CCC(c2cc(F)ccc2F)(S(=O)(=O)c2ccc(Cl)cc2)CC1)C(F)(F)F (stereo not given)

>  <value reported>
1

$$$$

---

- Test system: HEK-293T
- protocol notes: Multiplex assay against HEK293T
- Format: toxicity, cell-based
- test context: human, 12 h, 1 µM, compound concentration 1 uM, replicate 1
Bucketed by reported Population Mitochondria Different-Phenotype (%), buckets being 0 (below 9%), 1 (9% to below 80%), 2 (80% or more)

>  <compound>
COc1ccc(-c2ccc3c(N4CCOCC4)nc(N4C[C@@H](C)O[C@@H](C)C4)nc3n2)cc1CO [Ku-0063794]

>  <assigned category>
0

$$$$
>  <compound>
CCCS(=O)(=O)c1nc(NC2CC2)cc(-c2ccc3c(ccn3C3CC(C)(C)NC(C)(C)C3)c2)n1

>  <assigned category>
2

$$$$
>  <compound>
C=CCn1c(=O)c2cnc(Nc3ccc(N4CCN(C)CC4)cc3)nc2n1-c1cccc(C(C)(C)O)n1 [ADAVOSERTIB]

>  <assigned category>
0

$$$$
>  <compound>
O=C(Nc1cccnn1)N1CCC(=Cc2cccc(Oc3ccc(C(F)(F)F)cn3)c2)CC1

>  <assigned category>
1

$$$$
>  <compound>
COC(=N)c1nc2ccc3ncnc(Nc4ccc(OC)cc4F)c3c2s1

>  <assigned category>
1

$$$$
>  <compound>
Cc1ccc2nc(NCCN)c3ncc(C)n3c2c1.O=C(O)C(F)(F)F.O=C(O)C(F)(F)F

>  <assigned category>
0

$$$$
>  <compound>
Cl.O=c1c2cccn2c2ccccc2n1CCCN1CCC(c2ccc(Cl)cc2)CC1

>  <assigned category>
2

$$$$

---

- Tested on: HEK-293T
- protocol notes: Multiplex assay against HEK293T
- Assay type: toxicity, cell-based
- test context: human, 48 h, 10 µM, compound concentration 10 uM, replicate 2

>  <molecule>
CNc1cc(Oc2cc(C(=O)Nc3cc(N4CCN(C)CC4)cc(C(F)(F)F)c3)ccc2C)ncn1

>  <target desc>
HEK-293T

>  <Population Pyknosed Nuclei (%)>
87%

$$$$
>  <molecule>
CCN1CCN(Cc2ccc(Nc3ncc(F)c(-c4cc(F)c5nc(C)n(C(C)C)c5c4)n3)nc2)CC1.CS(=O)(=O)O

>  <target desc>
HEK-293T

>  <Population Pyknosed Nuclei (%)>
77%

$$$$
>  <molecule>
CN1CCC(=C2c3ccccc3CC(=O)c3sccc32)CC1.O=C(O)/C=C/C(=O)O [KETOTIFEN FUMARATE]

>  <target desc>
HEK-293T

>  <Population Pyknosed Nuclei (%)>
26%

$$$$
>  <molecule>
CCOc1cc(C(=O)N2CCC(N3CCN(C)CC3)CC2)ccc1Nc1ncc2c(n1)N(C1CCCC1)c1ccccc1C(=O)N2C

>  <target desc>
HEK-293T

>  <Population Pyknosed Nuclei (%)>
75%

$$$$
>  <molecule>
CCCn1c(=O)c2[nH]c(-c3cnn(Cc4cccc(C(F)(F)F)c4)c3)nc2n(CC)c1=O

>  <target desc>
HEK-293T

>  <Population Pyknosed Nuclei (%)>
10%

$$$$
